assay: Cytotoxicity on SH-SY5Y cells (MTT); type: cell-based, human; details: human, SH-SY5Y neuroblastoma cells; MTT, 24 h; mean ± SEM of three measurements
reported metric: IC50 at 24 h (µM)
Output spec: scalar in µM, unitless text.

>>> print(df.to_string())
                                   compound  observed_measurement
0  CN(C)CCNc1cc(/C=C/c2ccc(N(C)C)cc2)nc2ccccc12 [Compound 6c2]                   128
1  CCN(CC)CCCNc1cc(/C=C/c2c[nH]c3ccccc23)nc2ccccc12 [Compound 6a3]                   148

Form: compound = CN(C)CCCNc1cc(/C=C/c2ccc(N(C)C)cc2)nc2ccccc12 [Compound 6b2] ; IC50 at 24 h = 228

Form: compound = CCCCNc1cc(/C=C/c2ccc(N(C)C)cc2)nc2ccccc12 [Compound 6d2] ; IC50 at 24 h = 112

###

target: Aβ1–42 (Homo sapiens); construct: Aβ1–42 (Sigma, St. Louis, MO, USA; counterion, NaOH) stock solution was prepared by dissolving Aβ1–42 peptide in ammonium hydroxide; purchased Sigma; assay: Inhibition of self-induced Aβ1–42 aggregation (ThT fluorescence assay); format: biochemical; conditions: inhibitor 20 μM; Aβ1–42 50 μM; ThT; 37 °C, 72 h; mean ± SD
Item-by-item account of inhibition at 20 µM
Output spec: scalar in %, unitless text.

                                   molecule      reported_metric  unit_of_measurement  observed_measurement
0  CN(C)CCNc1cc(/C=C/c2ccc(N(C)C)cc2)nc2ccccc12  inhibition at 20 µM                    %                  83.9

Attention now turns to another entry.
Form: molecule = "CCN(CC)c1ccc(/C=C/c2cc(NCC(C)C)c3ccccc3n2)cc1" ; inhibition at 20 µM = 77.9

###

Item-by-item account of melting point

>>> df
                                 mol_smiles  observed_measurement
0  CCN(CC)c1ccc(/C=C/c2cc(NCCN(C)C)c3ccccc3n2)cc1     145.2 to 147.1 °C

Form: molecule = "CCCCNc1cc(/C=C/c2ccc(N(C)C)cc2)nc2ccccc12" ; melting point = 165.3 to 167.1 °C

Form: molecule = "CC(C)CNc1cc(/C=C/c2ccc(N(C)C)cc2)nc2ccccc12" ; melting point = 171.8 to 173.2 °C

###

Item-by-item account of IC50
target: Aβ1–42 (Homo sapiens, UniProt P05067); construct: Aβ1–42 (Sigma, St. Louis, MO, USA; counterion, NaOH) stock solution was prepared by dissolving Aβ1–42 peptide in ammonium hydroxide; purchased Sigma; test: Inhibition of self-induced Aβ1–42 aggregation (ThT fluorescence assay); format: biochemical; details: ThT fluorescence method; mean ± SD of three experiments; read-out: IC50 against self-induced Aβ1–42 aggregation
Sequence (P05067 672-713): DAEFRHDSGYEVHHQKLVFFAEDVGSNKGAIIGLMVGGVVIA
Output spec: scalar in µM, unitless text.

>>> print(df.to_string())
                                 mol_smiles  unit_of_measurement  observed_measurement
0  CCN(CC)CCCNc1cc(/C=C/c2ccc(N(CC)CC)cc2)nc2ccccc12                   µM                   7.8

Form: compound = "CN(C)CCCNc1cc(/C=C/c2ccc(N(C)C)cc2)nc2ccccc12" ; IC50 = 6.1

Form: compound = "CCN(CC)c1ccc(/C=C/c2cc(NCCCN(C)C)c3ccccc3n2)cc1" ; IC50 = 4.5

###

biological target: Aβ1–42 (Homo sapiens, UniProt P05067); construct: Aβ1–42 (Sigma, St. Louis, MO, USA; counterion, NaOH) stock solution was prepared by dissolving Aβ1–42 peptide in ammonium hydroxide; purchased Sigma; experiment: Inhibition of self-induced Aβ1–42 aggregation (ThT fluorescence assay); assay type: biochemical; conditions: inhibitor 20 μM; Aβ1–42 50 μM; ThT; 37 °C, 72 h; mean ± SD
Item-by-item account of inhibition at 20 µM
Output spec: scalar in %, unitless text.

>>> df
                                   molecule      reported_metric  observed_measurement
0  CN(C)CCCNc1cc(/C=C/c2c[nH]c3ccccc23)nc2ccccc12 [Compound 6b3]  inhibition at 20 µM                  87.2

The molecule CCN(CC)CCCNc1cc(/C=C/c2ccc(N(C)C)cc2)nc2ccccc12 [Compound 6a2] on Aβ1–42 (Homo sapiens, UniProt P05067): inhibition at 20 µM was 88.5

The molecule CN(C)CCCNc1cc(/C=C/c2ccc(N(C)C)cc2)nc2ccccc12 [Compound 6b2] on Aβ1–42 (Homo sapiens, UniProt P05067): inhibition at 20 µM was 92.1

The molecule CCCCNc1cc(/C=C/c2ccc(N(C)C)cc2)nc2ccccc12 [Compound 6d2] on Aβ1–42 (Homo sapiens, UniProt P05067): inhibition at 20 µM was 79.2

###

test: Cytotoxicity on SH-SY5Y cells (MTT); type: cell-based, human; settings: human, SH-SY5Y neuroblastoma cells; MTT, 24 h; mean ± SEM of three measurements
reported metric: IC50 at 24 h (µM)
Output spec: scalar in µM, unitless text.

Examples from the recorded data:
In [3]: df
Out[3]:
                                 mol_smiles  reported_metric  unit_of_measurement  observed_measurement
0  CN(C)CCCNc1cc(/C=C/c2c[nH]c3ccccc23)nc2ccccc12     IC50 at 24 h                   µM                   168
1  CCN(CC)c1ccc(/C=C/c2cc(NCCN(C)C)c3ccccc3n2)cc1     IC50 at 24 h                   µM                   154
2  CCCCNc1cc(/C=C/c2ccc(N(CC)CC)cc2)nc2ccccc12     IC50 at 24 h                   µM                   119
3  CCN(CC)CCCNc1cc(/C=C/c2ccc(N3CCOCC3)cc2)nc2ccccc12     IC50 at 24 h                   µM                   145
4  CC(C)CNc1cc(/C=C/c2ccc(N(C)C)cc2)nc2ccccc12     IC50 at 24 h                   µM                   142

Form: compound = "CCN(CC)CCCNc1cc(/C=C/c2ccc(N(CC)CC)cc2)nc2ccccc12" ; IC50 at 24 h = 189

Form: compound = "CCN(CC)CCCNc1cc(/C=C/c2ccc(N(C)C)cc2)nc2ccccc12" ; IC50 at 24 h = 188

Form: compound = "CCN(CC)c1ccc(/C=C/c2cc(NCC(C)C)c3ccccc3n2)cc1" ; IC50 at 24 h = 144

Form: compound = "CCN(CC)c1ccc(/C=C/c2cc(NCCCN(C)C)c3ccccc3n2)cc1" ; IC50 at 24 h = 254

###

target: Aβ1–42 (Homo sapiens, UniProt P05067); construct: Aβ1–42 (Sigma, St. Louis, MO, USA; counterion, NaOH) stock solution was prepared by dissolving Aβ1–42 peptide in ammonium hydroxide; purchased Sigma; experiment: Inhibition of self-induced Aβ1–42 aggregation (ThT fluorescence assay); assay type: biochemical; conditions: inhibitor 20 μM; Aβ1–42 50 μM; ThT; 37 °C, 72 h; mean ± SD
reported metric: inhibition at 20 µM (%)
Output spec: scalar in %, unitless text.

Form: compound = CCN(CC)c1ccc(/C=C/c2cc(NCCN(C)C)c3ccccc3n2)cc1 [Compound 6c1] ; inhibition at 20 µM = 85.1

Form: compound = CCN(CC)c1ccc(/C=C/c2cc(N3CCCCC3)c3ccccc3n2)cc1 [Compound 4b1, reference compound] ; inhibition at 20 µM = 83.5

Form: compound = Oc1ccc(/C=C/c2cc(O)cc(O)c2)cc1 [Res, resveratrol, reference compound] ; inhibition at 20 µM = 77.2

Form: compound = CCN(CC)CCCNc1cc(/C=C/c2ccc(N(CC)CC)cc2)nc2ccccc12 [Compound 6a1] ; inhibition at 20 µM = 90.2

Form: compound = CN(C)c1ccc(/C=C/c2cc(N3CCCCC3)c3ccccc3n2)cc1 [Compound 4b2, reference compound] ; inhibition at 20 µM = 81.2

Form: compound = CCCCNc1cc(/C=C/c2ccc(N(CC)CC)cc2)nc2ccccc12 [Compound 6d1] ; inhibition at 20 µM = 80.5

###

Item-by-item account of melting point

Examples from the recorded data:
In [3]: df
Out[3]:
                                 mol_smiles  observed_measurement
0  CCN(CC)CCCNc1cc(/C=C/c2ccc(N(C)C)cc2)nc2ccccc12     168.5 to 170.1 °C
1  CN(C)CCNc1cc(/C=C/c2ccc(N(C)C)cc2)nc2ccccc12     148.9 to 149.6 °C
2  CN(C)CCCNc1cc(/C=C/c2ccc(N(C)C)cc2)nc2ccccc12     151.2 to 153.3 °C
3  CCN(CC)CCCNc1cc(/C=C/c2c[nH]c3ccccc23)nc2ccccc12     194.3 to 195.1 °C
4  CCCCNc1cc(/C=C/c2ccc(N(CC)CC)cc2)nc2ccccc12     172.5 to 173.8 °C
5  CCN(CC)CCCNc1cc(/C=C/c2ccc(N(CC)CC)cc2)nc2ccccc12       182.3 to 184 °C

Form: compound = "CCN(CC)CCCNc1cc(/C=C/c2ccc(N3CCOCC3)cc2)nc2ccccc12" ; melting point = 172.5 to 174.3 °C

Form: compound = "CCN(CC)c1ccc(/C=C/c2cc(NCC(C)C)c3ccccc3n2)cc1" ; melting point = 170.2 to 171.7 °C

Form: compound = "CN(C)CCCNc1cc(/C=C/c2c[nH]c3ccccc23)nc2ccccc12" ; melting point = 168.2 to 169.5 °C
